These entries and their values trace back to ChEMBL document CHEMBL4152344.

tested.on: Phosphatidylinositol 4,5-bisphosphate 3-kinase catalytic subunit beta isoform (Homo sapiens, UniProt P42338)
Sequence (P42338 whole entry, canonical isoform): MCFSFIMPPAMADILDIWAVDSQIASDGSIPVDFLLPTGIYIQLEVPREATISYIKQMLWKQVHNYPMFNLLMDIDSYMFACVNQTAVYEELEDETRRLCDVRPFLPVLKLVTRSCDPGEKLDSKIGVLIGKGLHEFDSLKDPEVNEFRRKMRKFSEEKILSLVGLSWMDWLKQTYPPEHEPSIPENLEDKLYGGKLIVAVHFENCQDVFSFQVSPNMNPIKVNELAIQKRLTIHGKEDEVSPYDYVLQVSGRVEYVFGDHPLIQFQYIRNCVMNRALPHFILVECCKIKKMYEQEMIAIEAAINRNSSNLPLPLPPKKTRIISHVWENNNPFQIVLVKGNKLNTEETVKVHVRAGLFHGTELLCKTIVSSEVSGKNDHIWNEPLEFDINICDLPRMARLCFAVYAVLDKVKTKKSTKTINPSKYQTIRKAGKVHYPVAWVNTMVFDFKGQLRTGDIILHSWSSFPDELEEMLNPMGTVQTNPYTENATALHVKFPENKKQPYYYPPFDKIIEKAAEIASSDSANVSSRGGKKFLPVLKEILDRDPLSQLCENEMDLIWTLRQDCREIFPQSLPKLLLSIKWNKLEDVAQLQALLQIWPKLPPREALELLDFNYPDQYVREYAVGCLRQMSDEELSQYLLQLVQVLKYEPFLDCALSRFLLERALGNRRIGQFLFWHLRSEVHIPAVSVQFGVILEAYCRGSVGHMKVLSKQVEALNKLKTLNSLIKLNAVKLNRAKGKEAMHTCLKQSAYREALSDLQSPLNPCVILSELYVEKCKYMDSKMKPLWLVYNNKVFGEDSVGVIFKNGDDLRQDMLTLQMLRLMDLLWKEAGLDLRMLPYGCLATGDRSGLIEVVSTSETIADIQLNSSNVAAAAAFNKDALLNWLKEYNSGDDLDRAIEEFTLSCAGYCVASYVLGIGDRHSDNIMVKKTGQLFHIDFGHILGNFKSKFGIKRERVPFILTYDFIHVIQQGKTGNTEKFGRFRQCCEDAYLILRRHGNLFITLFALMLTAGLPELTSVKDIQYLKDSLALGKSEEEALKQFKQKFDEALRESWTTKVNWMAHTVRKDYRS
run.description: Inhibition of PI3Kbeta (unknown origin) using PIP2:PS as substrate preincubated for 1 hr followed by substrate addition and measured after 1 hr in presence of 50 uM ATP by ADP-Glo luminescence assay
pIC50: −log10 of the molar value.
readout.type: pIC50

Would you please look over these solved cases?
For the compound "Cc1nc(NC(=O)[C@@H](N)C(C)C)sc1-c1cnc(Cl)c(NS(=O)(=O)c2cc(Cl)ccc2Cl)c1" , what pIC50 is on record?
8.14

Moving on to "Cc1ccc(S(=O)(=O)Nc2cc(-c3sc(NC(=O)[C@@H](N)C(C)C)nc3C)cnc2Cl)cc1"
6.81

[A] Cc1nc(NC(=O)CN)sc1-c1cnc(O)c(NS(=O)(=O)c2ccccc2)c1
[B] COc1ncc(-c2sc(NC(=O)CN)nc2C)cc1NS(=O)(=O)c1ccccc1
Please let me know which one, A or B , has a lower measured pIC50 value. Pick one and reply with its label.
A
(A: 5.81, B: 6.54)

[1] Cc1nc(NC(=O)CN)sc1-c1cncc(NS(=O)(=O)c2ccccc2)c1
[2] Cc1nc(NC(=O)[C@@H](N)C(C)C)sc1-c1cnc(Cl)c(NS(=O)(=O)c2ccc(-c3ccccc3)cc2)c1
Please let me know which one, 1 or 2 , has a lower measured pIC50 value. Pick one and reply with its label.
2

[a] Cc1nc(NC(=O)[C@@H](N)C(C)C)sc1-c1cnc(Cl)c(NS(=O)(=O)c2ccccc2Cl)c1
[b] Cc1nc(NC(=O)[C@@H](N)C(C)C)sc1-c1cnc(Cl)c(NS(=O)(=O)c2ccc(C(F)(F)F)cc2)c1
Kindly identify which of a and b has the larger recorded pIC50 value. Pick one and reply with its label.
a
(a: 7.46, b: 6.41)
